B1: F1*; the commonest letter at each place (parent)
chain: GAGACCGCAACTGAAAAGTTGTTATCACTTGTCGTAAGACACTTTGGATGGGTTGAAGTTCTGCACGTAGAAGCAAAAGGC

Variants of: B1
assay.details: fraction ligated after 30 min (ligated reads / total reads); higher = more ligase activity
particulars: with F1*sub RNA substrate (template-directed ligation), 42 °C
Label yes (1) when fraction ligated is at or above 0.8; otherwise label no (0).

### Prompt Can T30A T32A be said to have fraction ligated at or above 0.8?
### Response yes (1)

### Prompt Can T25C G50T be said to have fraction ligated at or above 0.8?
### Response no (0)

### Prompt Can T45A G55T be said to have fraction ligated at or above 0.8?
### Response no (0)

### Prompt Can C42T T44G be said to have fraction ligated at or above 0.8?
### Response yes (1)

### Prompt Can G31C T43G be said to have fraction ligated at or above 0.8?
### Response no (0)

Consider the additional variant presented here.
### Prompt Can T35G G50A be said to have fraction ligated at or above 0.8?
### Response no (0)

Data provenance: the supplement of paper PMC6755084
